Cited source for all entries: ChEMBL document CHEMBL5150006

Molecular target: UniProt:Q9UBN7
Sequence (Q9UBN7 whole entry): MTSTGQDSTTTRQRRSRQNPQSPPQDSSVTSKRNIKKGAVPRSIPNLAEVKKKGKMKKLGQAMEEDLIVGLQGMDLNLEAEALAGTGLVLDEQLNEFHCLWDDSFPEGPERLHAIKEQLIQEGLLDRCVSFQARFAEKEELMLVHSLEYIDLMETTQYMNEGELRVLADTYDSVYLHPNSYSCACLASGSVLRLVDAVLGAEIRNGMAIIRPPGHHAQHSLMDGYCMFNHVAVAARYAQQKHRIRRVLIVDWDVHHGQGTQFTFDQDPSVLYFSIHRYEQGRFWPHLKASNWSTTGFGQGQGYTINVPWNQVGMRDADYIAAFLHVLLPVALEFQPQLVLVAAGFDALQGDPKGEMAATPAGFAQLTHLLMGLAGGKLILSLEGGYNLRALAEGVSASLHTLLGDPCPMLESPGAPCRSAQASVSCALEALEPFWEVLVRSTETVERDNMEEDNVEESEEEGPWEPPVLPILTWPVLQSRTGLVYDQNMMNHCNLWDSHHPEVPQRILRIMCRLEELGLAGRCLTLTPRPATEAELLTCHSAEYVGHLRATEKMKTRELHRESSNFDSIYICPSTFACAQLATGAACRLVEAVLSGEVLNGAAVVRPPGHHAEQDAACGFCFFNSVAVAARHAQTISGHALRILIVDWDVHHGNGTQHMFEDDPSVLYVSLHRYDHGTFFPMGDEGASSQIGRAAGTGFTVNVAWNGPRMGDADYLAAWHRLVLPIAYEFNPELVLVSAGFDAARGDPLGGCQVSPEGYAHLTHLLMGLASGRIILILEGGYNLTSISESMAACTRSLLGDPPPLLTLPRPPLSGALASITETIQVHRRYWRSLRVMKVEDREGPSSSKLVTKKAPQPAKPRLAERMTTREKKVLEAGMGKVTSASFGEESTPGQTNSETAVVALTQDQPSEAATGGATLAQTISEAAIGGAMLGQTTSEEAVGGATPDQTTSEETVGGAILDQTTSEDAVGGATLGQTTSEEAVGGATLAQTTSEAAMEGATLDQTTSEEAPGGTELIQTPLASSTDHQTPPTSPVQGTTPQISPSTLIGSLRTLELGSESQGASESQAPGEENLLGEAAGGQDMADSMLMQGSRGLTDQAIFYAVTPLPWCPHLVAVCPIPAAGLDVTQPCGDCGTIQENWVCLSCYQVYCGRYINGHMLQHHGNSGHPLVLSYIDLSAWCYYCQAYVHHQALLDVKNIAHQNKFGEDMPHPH
Assay: Inhibition of HDAC6 in human HeLa cells measured after 2 hrs by Western blot analysis
Type: cell-based
measurement_name: pIC50
As a rule, pIC50 stands for the negative log10 of the concentration, concentration in M.

[Q] Name the recorded pIC50 of the item "CC12CC3CC(C)(C1)CC(NC(=O)/C=C/c1ccc(C(=O)NO)cc1)(C3)C2" in your answer.
[A] 6.74

* * *

Target: Glutamate [NMDA] receptor
Experiment: Binding affinity to NMDAR (unknown origin) assessed as inhibition constant by [3H]MK-801 binding assay
measurement_name: Ki (nM)
Write the answer as a number in nM, unit excluded.

[Q] Name the recorded Ki of the item "CC12CC3CC(C)(C1)CC(NC(=O)/C=C/c1ccc(C(=O)NO)cc1)(C3)C2" in your answer.
[A] 590
